Test system: PPARg:RXRa (NR concentration 180 nM, RXRa partner concentration 90 nM)
assayInfo: PBM binding z-score (relative to random genomic background probes); higher = stronger binding; sequences stand for … in GC…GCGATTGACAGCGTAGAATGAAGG
experimentalReadout: PBM binding z-score
Answers are plain numbers.

For every item below, please supply its PBM binding z-score.
1. ACTATTAGTTGAGACGAGGGCAACCAATAGGTTG
2. GCTATTATTTGAAAGGGCAACCGAATGATTCTCG
3. CCAGAGAGGTGAAAGGTAACTCAGTCTGGTACGC
4. ACTATTAGTTGAGACGAGGGCAACGGATAGGTTG
5. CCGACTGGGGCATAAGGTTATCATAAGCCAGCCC

A.
1. 0.647
2. 0.626
3. 6.53
4. 0.652
5. 2.31

* * *

Tested on: RARg homodimer (NR concentration 270 nM)
assayInfo: PBM binding z-score (relative to random genomic background probes); higher = stronger binding; sequences stand for … in GC…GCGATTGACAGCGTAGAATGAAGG
The label depends only on PBM binding z-score: Satisfied if it is at least 5, Not satisfied if it is smaller.

Use the examples below as a reference point.
INSERT INTO measurements (seqtext, assignedclass) VALUES
  ('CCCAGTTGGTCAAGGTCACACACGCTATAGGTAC', 'Not satisfied'),
  ('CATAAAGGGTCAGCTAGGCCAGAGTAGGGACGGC', 'Satisfied'),
  ('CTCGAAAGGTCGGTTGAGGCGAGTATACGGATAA', 'Not satisfied'),
  ('GCTAGTTGGTCAATAAAAGGTCACACACCGGTCG', 'Satisfied'),
  ('CCAGACAGGTCAGAAGGTAACTCAGCCTCGATTA', 'Not satisfied'),
  ('AGTAAAAGTTCATCTAGGTAACGTAAGATATGCT', 'Satisfied'),
  ('TATACAGGGTTAAAGGCCAGAGTACGAATGTCGA', 'Not satisfied'),
  ('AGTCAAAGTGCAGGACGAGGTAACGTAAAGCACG', 'Not satisfied');

Q. Test whether the sequence AGAATGAGGTTAAGATCACGGAAACAGAATACAT records PBM binding z-score of 5 or higher.
A. Not satisfied

Q. Entry CCTACTGGGCCATGGTCATTGATCAGTCAAAGCA please
A. Not satisfied

Q. Now consider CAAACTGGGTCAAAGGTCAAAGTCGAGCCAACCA .
A. Satisfied

Q. Can you check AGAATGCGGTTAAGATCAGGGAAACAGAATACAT next?
A. Not satisfied

Q. Also check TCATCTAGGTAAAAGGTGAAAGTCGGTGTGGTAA
A. Not satisfied

Q. Repeat for the following sequence: CGAACTAGGTCTAGGACAGTGAATCTCCGCACGC
A. Not satisfied

Q. Likewise for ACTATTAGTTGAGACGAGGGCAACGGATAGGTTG ?
A. Not satisfied

Q. Queued: ACTAGTCGGTCAGCTGAGGTCACACACAATTCGG
A. Satisfied

Q. Follow-up item: AGAATGAGGTTACCACAGATCAGGGAAACGCTTG
A. Not satisfied

Q. Field entry: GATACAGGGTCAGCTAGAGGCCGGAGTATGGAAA
A. Not satisfied
